Molecular target: Tyrosine-protein kinase JAK3 (Homo sapiens)
Sequence (P52333 whole entry): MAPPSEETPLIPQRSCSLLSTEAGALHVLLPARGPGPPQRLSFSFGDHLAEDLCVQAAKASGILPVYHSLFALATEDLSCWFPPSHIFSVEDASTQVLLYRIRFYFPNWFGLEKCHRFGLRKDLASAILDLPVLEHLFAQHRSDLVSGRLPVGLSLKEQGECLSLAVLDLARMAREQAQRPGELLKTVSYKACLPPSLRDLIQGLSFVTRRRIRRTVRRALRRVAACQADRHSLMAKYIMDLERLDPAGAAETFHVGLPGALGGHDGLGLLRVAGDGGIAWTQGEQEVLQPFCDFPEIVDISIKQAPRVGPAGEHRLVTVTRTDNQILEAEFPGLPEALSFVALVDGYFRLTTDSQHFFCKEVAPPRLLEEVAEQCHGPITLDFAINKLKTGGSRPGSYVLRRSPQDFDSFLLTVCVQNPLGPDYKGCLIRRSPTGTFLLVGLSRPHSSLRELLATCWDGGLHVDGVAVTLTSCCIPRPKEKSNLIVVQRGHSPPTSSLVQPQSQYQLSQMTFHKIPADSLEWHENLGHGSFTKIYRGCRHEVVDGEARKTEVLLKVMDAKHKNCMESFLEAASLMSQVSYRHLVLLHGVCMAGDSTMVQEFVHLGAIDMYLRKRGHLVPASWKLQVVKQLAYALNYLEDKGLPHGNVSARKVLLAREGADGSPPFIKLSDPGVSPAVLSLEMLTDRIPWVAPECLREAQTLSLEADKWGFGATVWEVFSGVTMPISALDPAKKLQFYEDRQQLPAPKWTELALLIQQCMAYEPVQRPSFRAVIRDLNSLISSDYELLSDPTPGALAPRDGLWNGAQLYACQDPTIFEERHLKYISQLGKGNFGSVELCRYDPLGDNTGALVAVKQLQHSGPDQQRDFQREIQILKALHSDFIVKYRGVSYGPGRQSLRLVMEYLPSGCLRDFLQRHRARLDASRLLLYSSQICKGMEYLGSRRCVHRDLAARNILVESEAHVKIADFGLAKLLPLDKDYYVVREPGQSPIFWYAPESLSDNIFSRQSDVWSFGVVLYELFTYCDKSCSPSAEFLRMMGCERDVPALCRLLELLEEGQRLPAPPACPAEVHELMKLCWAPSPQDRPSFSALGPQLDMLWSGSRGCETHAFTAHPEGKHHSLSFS
pIC50: −log10 of the molar value.
experimental.endpoint: pIC50

For orientation, consider the following solved cases.
Query (molecule): Cc1cc(-c2cccc3nc(Nc4ccc(N5CCN(C)CC5)cc4)oc23)ccc1C(=O)N1CCOCC1 ; field requested: pIC50
6.77

Moving on to COc1cc(Nc2nc3cccc(-c4ccc(NS(C)(=O)=O)cc4)c3o2)cc(OC)c1OC
6.89

(I) COc1cc(Nc2nc3cccc(-c4ccc(CN5CCOCC5)cc4)c3o2)cc(OC)c1OC
(II) CN(C)C(=O)c1ccc(Nc2nc3cccc(-c4ccc(C(=O)N5CCOCC5)cc4)c3o2)cc1
(III) Cc1cc(Nc2nc3cccc(-c4cc(F)c(CN5CCOCC5)c(F)c4)c3o2)ccc1C(=O)N(C)C
Please list these molecules in decreasing order of pIC50. Your task in answering is to list the labels in the requested order.
III, I, II
